# system_under_test: UniProtKB P22413
# Sequence (P22413 whole entry): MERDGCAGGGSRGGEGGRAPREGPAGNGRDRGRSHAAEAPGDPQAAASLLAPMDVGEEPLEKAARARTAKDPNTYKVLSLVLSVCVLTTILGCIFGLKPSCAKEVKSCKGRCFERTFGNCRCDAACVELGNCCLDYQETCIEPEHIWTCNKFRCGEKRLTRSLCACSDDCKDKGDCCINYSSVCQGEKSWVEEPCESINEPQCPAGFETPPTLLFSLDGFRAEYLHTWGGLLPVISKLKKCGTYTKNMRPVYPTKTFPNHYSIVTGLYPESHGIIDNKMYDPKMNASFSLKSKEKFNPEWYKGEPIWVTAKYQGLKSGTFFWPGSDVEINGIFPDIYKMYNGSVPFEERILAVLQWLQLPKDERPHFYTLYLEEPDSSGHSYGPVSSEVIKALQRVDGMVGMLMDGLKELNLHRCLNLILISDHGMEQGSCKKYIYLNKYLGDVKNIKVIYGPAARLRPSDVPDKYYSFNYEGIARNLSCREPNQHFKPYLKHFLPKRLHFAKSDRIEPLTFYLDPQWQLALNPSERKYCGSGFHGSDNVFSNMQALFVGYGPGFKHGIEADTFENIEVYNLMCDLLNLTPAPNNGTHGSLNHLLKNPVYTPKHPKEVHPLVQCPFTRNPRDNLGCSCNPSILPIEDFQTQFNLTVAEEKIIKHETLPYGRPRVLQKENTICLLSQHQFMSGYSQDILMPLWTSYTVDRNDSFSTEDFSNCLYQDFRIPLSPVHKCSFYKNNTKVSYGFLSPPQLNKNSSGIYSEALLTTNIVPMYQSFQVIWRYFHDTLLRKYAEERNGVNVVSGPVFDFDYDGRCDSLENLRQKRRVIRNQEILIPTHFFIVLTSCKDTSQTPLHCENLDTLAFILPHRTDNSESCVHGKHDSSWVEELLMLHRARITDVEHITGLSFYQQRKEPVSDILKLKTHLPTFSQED
# method: Inhibition of human NPP1, 100 μM p-Nph-5′-TMP as substrate (Tables 5, 6)
# condition_context: 10 μM; 100 μM p-Nph-5′-TMP as a substrate; inactive = no inhibition at 10 μM
endpoint_label: % inhibition ± SD at 10 μM, Human NPP1 (%)
Respond numerically; units are % and should not be typed.

The measured % inhibition ± SD at 10 μM, Human NPP1 associated with Nc1ncnc2c1ncn2[C@@H]1O[C@H](COS(=O)(=O)CS(=O)(=O)O)[C@@H](O)[C@H]1O [Compound 21] reads 12

The measured % inhibition ± SD at 10 μM, Human NPP1 associated with Nc1ncnc2c1ncn2COCCOP(O)(=S)OCCOCn1cnc2c(N)ncnc21 [Compound 26] reads 13

The measured % inhibition ± SD at 10 μM, Human NPP1 associated with Nc1ncnc2c1ncn2COCCOP(=O)(O)C(Cl)(Cl)P(=O)(O)O [Compound 23] reads 4
